- study_target: eEF2K (Homo sapiens, UniProt O00418)
- Construct: in the immortalized epithelial breast cell lines, MCF10A; host or cells: MCF10A immortalized breast epithelial cells
- Sequence (O00418 whole entry): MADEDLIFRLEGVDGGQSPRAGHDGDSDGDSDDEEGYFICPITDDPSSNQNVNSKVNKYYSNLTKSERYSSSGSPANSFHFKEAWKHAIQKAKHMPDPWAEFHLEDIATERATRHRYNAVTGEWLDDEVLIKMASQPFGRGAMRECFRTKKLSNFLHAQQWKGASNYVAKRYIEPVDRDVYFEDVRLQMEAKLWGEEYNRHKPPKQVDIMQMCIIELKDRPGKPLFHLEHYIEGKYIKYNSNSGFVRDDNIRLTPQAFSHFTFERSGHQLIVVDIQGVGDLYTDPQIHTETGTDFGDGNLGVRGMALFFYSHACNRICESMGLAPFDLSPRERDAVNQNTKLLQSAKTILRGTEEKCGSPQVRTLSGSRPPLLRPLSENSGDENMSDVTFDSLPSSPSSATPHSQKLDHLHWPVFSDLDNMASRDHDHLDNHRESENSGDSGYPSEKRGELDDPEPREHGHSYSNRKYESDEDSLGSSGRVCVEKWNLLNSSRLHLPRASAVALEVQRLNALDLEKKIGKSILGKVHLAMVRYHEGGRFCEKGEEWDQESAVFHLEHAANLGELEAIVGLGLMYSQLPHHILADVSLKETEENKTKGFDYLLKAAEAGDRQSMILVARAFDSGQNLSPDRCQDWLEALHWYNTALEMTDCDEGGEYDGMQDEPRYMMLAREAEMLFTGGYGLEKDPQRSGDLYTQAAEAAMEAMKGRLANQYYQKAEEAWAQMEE
- experiment_summary: EF2K cell-based assay (P-EF2 AlphaLISA, 2-deoxyglucose stimulated MCF10A cells)
- assay_conditions: 2.5 mM 2-deoxyglucose 4 h, phosphorylation of EF2 at Thr 56, pIC50 = -log IC50 (M), read-out: eEF2K_C_PThr56 pIC50 (converted)
- Experimental: In this assay, 2.5 mM 2-deoxyglucose was used to deplete intracellular ATP and activate 5′ adenosine monophosphate-activated protein kinase (AMPK) in the immortalized epithelial breast cell lines, MCF10A. MCF 10A cells were purchased from ATCC (CRL-10317). MCF10A cells are seeded at a density of 1.25×10^5 Cells/ml at 100 μl/well in a 96-well plate and incubated for 24 hours (37° C., 5% CO2). […] P-EF2 levels are determined in these lysates using the P-EF2 AlphaLISA described above.

| compound | unit_of_measure | relation_sign | IC50 |
| --- | --- | --- | --- |
| CC1CN2CCN1Cc1cccc(c1)Nc1cc(ccn1)-c1cnc(nc1)N1CCCC1CCNC(=O)C2 (stereo not drawn) [Compound 48] | M | = | 3.16e-06 |
| CC(=O)NCCCCC1C(=O)NCCCNc2ncc(cn2)-c2ccnc(c2)Nc2cccc(c2)CN2CCN1CC2 (stereo not drawn) | M | > | 1e-05 |
| O=C1NCCC2CC(O)CN2c2ncc(cn2)-c2ccnc(c2)Nc2cccc(c2)CN2CCN(CC2)C12COC2 (stereo not drawn) [Compound 64] | M | = | 3.89e-07 |
| O=C1CN2CCCC(CC2)Oc2cccc(c2)Nc2cc(ccn2)-c2cnc(nc2)NCCCN1 (stereo not drawn) | M | = | 6.76e-07 |
| O=C1CN2CCN(CC2)Cc2cccc(c2)Nc2cc(ccn2)-c2cnc(nc2)N2CCC2CCN1 (stereo not drawn) | M | > | 1e-05 |
| NCCCCC1C(=O)NCCCNc2ncc(cn2)-c2ccnc(c2)Nc2cccc(c2)CN2CCN1CC2 (stereo not drawn) | M | = | 5.5e-06 |
| CN1CCCNC(=O)CN2CCN(CC2)Cc2cccc(c2)Nc2cc(ccn2)-c2ccc1nc2 | M | = | 5.89e-06 |
| O=C1CN2CCN(CC2)Cc2cccc(c2)Nc2cc(ccn2)-c2cnc(nc2)N2CC=CC2CCN1 (stereo not drawn) | M | = | 3.09e-07 |
| O=C1NCCCNc2ncc(cn2)-c2ccnc(c2)Nc2cccc(c2)NC2CCN(CC2)C12CC2 | M | = | 2.75e-06 |
| O=C1CN2CCN(Cc3cccc(c3)Nc3cc(ccn3)-c3cnc(nc3)N3CCCC3CCN1)C(CO)C2 (stereo not drawn) [Compound 44] | M | = | 8.71e-06 |
| CC1c2cccc(c2F)Nc2cc(ccn2)-c2cnc(nc2)NCCCNC(=O)C2(CC2)N2CCN1CC2 (single isomer, unassigned) [Compound 12] | M | > | 1e-05 |
| NC(=O)C1CCNC(=O)CN2CCN(CC2)Cc2cccc(c2)Nc2cc(ccn2)-c2cnc(nc2)N1 (stereo not drawn) [Compound 123] | M | = | 5.37e-06 |
| CN1c2cccc(c2F)Nc2cc(ccn2)-c2cnc(nc2)NCCCNC(=O)C2(CC2)N2CCC1CC2 | M | = | 1.62e-06 |
| O=C1CN2CCN(CC2)C2(CC2)c2cccc(c2)Nc2cc(ccn2)-c2cnc(nc2)NCCCN1 | M | > | 1e-05 |
| COCC1C(=O)NCCCNc2ncc(cn2)-c2ccnc(c2)Nc2cccc(c2)CN2CCN1CC2 (single isomer, unassigned) [Compound 5] | M | = | 2.51e-06 |
| O=C1NCCCNc2ncc(cn2)-c2ccnc(c2)Nc2cccc(c2)CN2CCN(CC2)C1CO (single isomer, unassigned) [Compound 3] | M | = | 5.75e-06 |
| NCCCOCC1CN2CCN1Cc1cccc(c1)Nc1cc(ccn1)-c1cnc(nc1)NCCCNC(=O)C2 (stereo not drawn) | M | > | 1e-05 |
| O=C1CNCCNc2ccc(cn2)-c2ccnc(c2)Nc2cccc(c2)CN2CCN1CC2 | M | > | 3.02e-05 |
| O=C1CN2CCC(CC2)Cc2cccc(c2)Nc2cc(ccn2)-c2ccc(nc2)NCCCN1 | M | = | 8.51e-06 |
| CC1(C)CN2CCN1CC(=O)NCCCNc1ncc(cn1)-c1ccnc(c1)Nc1cccc(c1)C2 | M | = | 1.05e-06 |
| O=C1NCCCNc2ncc(cn2)-c2ccnc(c2)Nc2cccc(c2F)CN2CCN(CC2)C12CC2 | M | = | 1.66e-07 |
| C=CCN1CCNC(=O)CN2CCN(CC2)Cc2cccc(c2)Nc2cc(ccn2)-c2cnc(nc2)C1 | M | = | 1.58e-06 |
| CC(=O)NCCCOCC1CN2CCN1Cc1cccc(c1)Nc1cc(ccn1)-c1cnc(nc1)NCCCNC(=O)C2 (stereo not drawn) [Compound 115] | M | = | 4.37e-07 |
| CC1CN2CCN1Cc1cccc(c1)Nc1cc(ccn1)-c1cnc(nc1)N1CC(O)CC1CCNC(=O)C2 (stereo not drawn) [Compound 60] | M | = | 4.79e-06 |
| N#CC1CC2CCNC(=O)C3(CC3)N3CCN(CC3)Cc3cccc(c3)Nc3cc(ccn3)-c3cnc(nc3)N2C1 (stereo not drawn) | M | = | 1.15e-06 |
| CC1c2cccc(c2F)Nc2cc(ccn2)-c2cnc(nc2)N2CC(O)CC2CCNC(=O)C2(CC2)N2CCN1CC2 (stereo not drawn) | M | = | 7.59e-08 |
| CC1NCCNC(=O)CN2CCN(CC2)Cc2cccc(c2)Nc2cc(ccn2)-c2cnc1nc2 (stereo not drawn) [Compound 134] | M | > | 1e-05 |
| CC1CN2CCN1Cc1cccc(c1)Nc1cc(ccn1)-c1cnc(nc1)NCCCNC(=O)C2 (stereo not drawn) [Compound 36] | M | = | 9.77e-07 |
